FYI, the data here is from patent US20260217797A1.

- System tested: SARS-CoV-2 wild type spike protein (on reporter virus particles) (SARS-CoV-2, UniProt P0DTC2 14-1273)
- Protocol text: cell-based or functional assay
Property: PsV Neut Assay IC50 (nM)
Numbers only, in nM.

• A-15 (antibody, V domains shown) VH: QVQLVQSGAEVKKPGASVKVSCKASGYTSSSYYMHWVRQAPGQGPEWMGIINPGGTSTSYAQKFQGRVTMTRDTSTSTVYMELSSLRSEDTAVYYCAIGYCSTTSCRWGDAFDIWGQGTMVTVSS VL: DIQVTQSPSSLSASVGDRVTITCRASQSISSYLNWYQQKPEKAPNLLIYAASSLQSGVPSRFSGSGSGTDFTLTISSLQPEDFATYYCQQSSTTPPTFGQGTKVEIK = 1.44
• A-2 (antibody, V domains shown) VH: EVQLVESGGGLIQPGGSLRLSCAASGFTVSSNYMSWVRQAPGKGLEWVSIIYSGGSTYYADSVKGRFTISRDNSKNTLYLQMNSLRAEDTAVYYCARAPSGEYGDPIYYWGQGTLVTVSS VL: QSVLTQPPSASASLGASVKLTCTLSSGHSTYTIAWHQQQPEKGPRYLMKLNSDGSHSKGDGIPDRFSGSSSGAERYLTISSLQSEDEADYYCQTWGTGNHWVFGGGTKLTVL = 0.169

Now, please, on to the next binder.
Data request: What measured PsV Neut Assay IC50 goes with A-13 (antibody, V domains shown) VH: QVQLVQSGAEVKKPGASVKVSCKASGYTFTDYYMHWVRQAPGQGLEWMGWINPNSGGTNSAQKFQGRVTMTRDTSINTAYMELSRLRSDDTAVYFCARDSHLAMVRGDFEYWGQGTLVTVSS VL: QSVLTQPASVSGSPGQSITISCTGTSSDVESYNVVSWYQQHPGKAPKLMIYEVSKRPSGVSHRFSGSKSGNTASLTISGLQAEDESDYYCCSYAGNSTWVFGGGTKLTVL ?
Data returned: 0.155
